target: glucagon receptor (Homo sapiens); construct: expressed in transfected cells; host or cells: HEK293; assay: cAMP induction, firefly luciferase reporter assay in HEK293 cells co-transfected with glucagon receptor; assay type: cell-based; settings: Table 3; relative to the activity of the native hormone
Sequence (P47871 26-477): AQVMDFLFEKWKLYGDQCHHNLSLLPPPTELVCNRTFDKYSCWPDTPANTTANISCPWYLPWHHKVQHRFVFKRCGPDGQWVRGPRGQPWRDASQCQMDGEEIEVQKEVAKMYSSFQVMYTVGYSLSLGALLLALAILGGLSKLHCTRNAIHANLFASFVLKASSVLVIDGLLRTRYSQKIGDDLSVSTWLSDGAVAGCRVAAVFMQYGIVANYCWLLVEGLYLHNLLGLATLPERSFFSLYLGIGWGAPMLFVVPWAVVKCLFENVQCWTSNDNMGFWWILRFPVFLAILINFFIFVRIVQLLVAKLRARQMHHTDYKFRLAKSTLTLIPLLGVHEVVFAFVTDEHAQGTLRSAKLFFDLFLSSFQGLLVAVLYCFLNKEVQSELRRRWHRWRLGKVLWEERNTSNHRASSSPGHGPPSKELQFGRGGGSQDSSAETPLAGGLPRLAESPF
Bridges are numbered along the chain shown (N, C = ends). Where no end group is shown, it is not given here. Side-chain parts run from the residue outwards. [ ]: non-standard residue; d: D form. Aib = CC(C)(N)C(=O)O
REPORTED_METRIC: GR relative activity (%)

substance="Example 8 peptide: Tyr1, AIB2, Glu16/Lys20 lactam, Leu-Ala-Gly 27-29, GPSSGAPPPS 30-39, or a peptide lacking a lactam [mt-225] (Y[Aib]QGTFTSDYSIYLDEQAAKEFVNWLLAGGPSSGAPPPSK([Ala-Cys(PEG 40 kDa)-Ac]); lactam 16-20; not fully specified (C-terminus))" reported_metric="GR relative activity" value_reported=1.99
substance="Example 8 peptide: Tyr1, AIB2, Glu16/Lys20 lactam, Leu-Ala-Gly 27-29, GPSSGAPPPS 30-39, or a peptide lacking a lactam [mt-219]" reported_metric="GR relative activity" value_reported=0.65
substance="Example 8 peptide: Tyr1, AIB2, Glu16/Lys20 lactam, Leu-Ala-Gly 27-29, GPSSGAPPPS 30-39, or a peptide lacking a lactam [mt-218]" reported_metric="GR relative activity" value_reported=0.70

----------
molecular target: GIP receptor (Homo sapiens); experiment: cAMP induction, firefly luciferase reporter assay in HEK293 cells co-transfected with GIP receptor; assay type: cell-based; details: GIP Receptor EC50, Table 11, Example 18
*1 amine or outer side, *2 acyl side, *3 side chain or, on linkers, in order; H or OH if unused. Where no end group is shown, it is not given here. Side-chain parts run from the residue outwards. [ ]: non-standard residue; d: D form. The star is where a group is joined. PEG8 = NCCOCCOCCOCCOCCOCCOCCOCCOCCC(=O)O; γGlu = O=C(O)[C@H](CCC(=O)[*:2])N[*:1]; X6 = CCCCCCCCCCCCCCCCC(CC(=O)*)C(=O)O; Palmitoyl = CCCCCCCCCCCCCCCC(=O)*; PEG4 = NCCOCCOCCOCCOCCC(=O)O; Aib = CC(C)(N)C(=O)O
// reported EC50 for each item listed
REPORTED_METRIC: EC50 (pM)

substance="H-H[Aib]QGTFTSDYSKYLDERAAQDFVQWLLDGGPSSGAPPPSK([PEG4-γGlu-Palmitoyl])G-NH2 [SEQ ID NO: 158]" assay_system="GIP receptor (Homo sapiens)" reported_metric=EC50 value_reported=5
substance="H[Aib]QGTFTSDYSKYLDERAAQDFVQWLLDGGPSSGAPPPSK(X6)G-NH2 [SEQ ID NO: 156]" assay_system="GIP receptor (Homo sapiens)" reported_metric=EC50 value_reported=6
substance="H[Aib]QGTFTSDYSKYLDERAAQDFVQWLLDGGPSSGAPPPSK([PEG8-γGlu-Palmitoyl])G-NH2 [SEQ ID NO: 159]" assay_system="GIP receptor (Homo sapiens)" reported_metric=EC50 value_reported=2

----------
Target: GIP receptor (Homo sapiens)
Sequence (P48546 22-466): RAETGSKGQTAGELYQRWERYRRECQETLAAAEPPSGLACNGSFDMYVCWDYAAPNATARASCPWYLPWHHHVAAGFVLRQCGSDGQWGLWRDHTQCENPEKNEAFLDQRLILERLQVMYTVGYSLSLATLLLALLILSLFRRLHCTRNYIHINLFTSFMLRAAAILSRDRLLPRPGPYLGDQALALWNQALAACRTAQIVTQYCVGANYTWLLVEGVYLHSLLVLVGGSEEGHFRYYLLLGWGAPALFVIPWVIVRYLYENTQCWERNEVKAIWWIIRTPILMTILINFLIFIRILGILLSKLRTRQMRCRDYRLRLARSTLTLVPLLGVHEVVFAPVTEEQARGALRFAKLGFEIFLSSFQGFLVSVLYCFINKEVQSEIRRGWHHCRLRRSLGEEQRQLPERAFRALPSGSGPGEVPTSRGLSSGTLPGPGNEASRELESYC
Assay: cAMP induction, firefly luciferase reporter assay in HEK293 cells co-transfected with GIP receptor
Type: cell-based
pEC50: −log10 of the molar value. *1 amine or outer side, *2 acyl side, *3 side chain or, on linkers, in order; H or OH if unused. Where no end group is shown, it is not given here. Side-chain parts run from the residue outwards. [ ]: non-standard residue; d: D form. The star is where a group is joined. Phe(4-NH2) = Nc1ccc(C[C@H](N)C(=O)O)cc1; γGlu = O=C(O)[C@H](CCC(=O)[*:2])N[*:1]; X6 = CCCCCCCCCCCCCCCCC(CC(=O)*)C(=O)O; Palmitoyl = CCCCCCCCCCCCCCCC(=O)*; Aib = CC(C)(N)C(=O)O
Collected pEC50 values appear next to each entry.
REPORTED_METRIC: pEC50

substance="H[Aib]QGTFTSDYSKYLDERAAQDFVQWLLDGGPSSGAPPPS[Phe(4-NH2)]([γGlu-γGlu-Palmitoyl])G-NH2 [SEQ ID NO: 145]" value_reported=10.77
substance="H[Aib]QGTFTSDYSKYLDERAAQDFVQWLLDGGPSSGAPPPS[Phe(4-NH2)](X6)G-NH2 [SEQ ID NO: 146]" value_reported=10.28
